Origin of the recorded values: the supplement of paper PMC10126150

- Tested on: ATP;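 note: ATP exposure 15 min at 22 °C before imaging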
- ASSAY: switch fluorescence ratio, 500 uM ATP over buffer (Cy3 cluster intensity, sum of 5 cycles each) (fold (ratio)); higher = stronger signal-on switching upon ATP binding; sequences stand for … in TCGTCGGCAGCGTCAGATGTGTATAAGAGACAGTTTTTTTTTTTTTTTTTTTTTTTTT…TC
- MEASUREMENT_PARAMETERS: aptamer strand: ATP DNA aptamer (quencher-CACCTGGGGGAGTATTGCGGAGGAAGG + anchor), 100 nM annealed; ATP concentration: 500 uM
OBSERVATION_TYPE: switch fluorescence ratio
I'd appreciate a reply containing only the number, no unit.

Examples from the recorded data:
>>> df
   entry_sequence  recorded_measurement
0      TGCTCGGTTT                 0.998
1      GGGTGATTCC                  1.03
2      ATGCATGGGG                  1.01
3      AATGGACGTG                     1
4      CTTTCTTTGG                  0.99

Query string: Item under review: `CAGGGTTGCC` . Reported switch fluorescence ratio?
Result string: 0.996

Query string: Another sequence to check: `TGGAGAAAGG`
Result string: 1.13

Query string: Now this one: `TTAAAAGGTC`
Result string: 1.03

Query string: Now consider `ACTGATAGGC` and answer again.
Result string: 1.18

Query string: Likewise for `AGTTTGATAT` ?
Result string: 0.999

Query string: Next record, please: `AAGACTTGGG`
Result string: 1.05

Query string: Another sequence: `CTCGGACCTT`
Result string: 1.19

Query string: And then `ATTGCAGCTG` , what is it?
Result string: 0.964

Query string: Ok, now `GCGTTAGTTG`
Result string: 1.01

Query string: Same thing, different sequence: `TAAAAAGATG`
Result string: 1.02

Query string: Further, for `TTATTGGTGT` ?
Result string: 1.01

Query string: And for `TTGTGGAATG` ?
Result string: 1.01
